pKi: −log10 of the molar value.
What follows is literature data on pKi for Tyrosine-protein kinase Lck (Homo sapiens).

Use these answered entries as a reference point.
Note to self: pKi recorded for CSc1sc(-c2nc(Nc3cccc(N)c3)ncc2C)c(C2CCCCC2)c1C#N was > 7.00

Note to self: pKi recorded for CSc1sc(-c2ccnc(Nc3cccc(NC(=O)CCN4CCCCC4)c3)n2)c(-c2cccnc2)c1C#N was > 7.00

Note to self: pKi recorded for CN(C)CCOc1ccc(-c2[nH]c3ncnc(NC[C@@H]4CCC[C@H]4NS(C)(=O)=O)c3c2-c2ccccc2)cc1 (relative stereo) was > 8.00

Note to self: pKi recorded for COC(C)(C)CCn1nc(Nc2c(C)cccc2C)c2cnc(Nc3ccc(N4CCNCC4)cc3)nc21 was > 8.00

Note to self: pKi recorded for O=C1CCCN1CCOc1ccc(-c2[nH]c3ncnc(NCC4CCCO4)c3c2-c2ccccc2)cc1 (centres unmarked) was > 8.00

Note to self: pKi recorded for CSc1sc(-c2ccnc(Nc3cccc(OCCCN4CCSCC4)c3)n2)c(C2CCCCC2)c1C#N was > 7.00

Note to self: pKi recorded for CSc1sc(-c2ccnc(Nc3cccc(NC(=O)Cc4ccccn4)c3)n2)c(-c2cccnc2)c1C#N was > 7.00

Shift focus to the following entry.
Note to self: pKi recorded for CSc1sc(-c2ccnc(Nc3cccc(OCCCO)c3)n2)c(-c2cccnc2)c1C#N was 6.00 to 7.00
